This section presents binders with their documented pKd values.
Molecular target: T1, CTL-62223
T1 construct: also called mosunetuzumab
T1 sequence (VH, as listed by the source, chain 1 of 2): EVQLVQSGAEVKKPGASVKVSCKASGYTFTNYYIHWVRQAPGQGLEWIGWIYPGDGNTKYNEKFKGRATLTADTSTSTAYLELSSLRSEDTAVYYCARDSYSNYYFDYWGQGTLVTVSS
T1 sequence (VL, as listed by the source, chain 2 of 2): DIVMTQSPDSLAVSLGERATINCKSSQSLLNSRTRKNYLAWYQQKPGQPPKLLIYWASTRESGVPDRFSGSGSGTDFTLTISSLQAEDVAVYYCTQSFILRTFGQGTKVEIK
Assay: SPR Carterra avidity, yeast anti-ID
pKd: −log10 of the molar value.

BINDER	pKd
ADI-34135 (antibody, V domains shown, anti-ID IgG) VH: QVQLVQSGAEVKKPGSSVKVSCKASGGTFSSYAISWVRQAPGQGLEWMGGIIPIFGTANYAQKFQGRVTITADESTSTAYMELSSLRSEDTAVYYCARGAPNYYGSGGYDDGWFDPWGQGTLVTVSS VL: EIVMTQSPGTLSLSPGERATLSCRASQSVSSSYLAWYQQKPGQAPRLLIYGASSRATGIPDRFSGSGSGTDFTLTISRLEPEDFAVYYCQQFGRYPTFGGGTKVEIK	8.92
ADI-34138 (antibody, V domains shown, anti-ID IgG) VH: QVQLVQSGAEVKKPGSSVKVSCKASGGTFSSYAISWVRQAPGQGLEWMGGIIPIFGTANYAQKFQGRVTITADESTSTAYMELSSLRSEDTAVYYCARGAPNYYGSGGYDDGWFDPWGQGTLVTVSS VL: EIVMTQSPGTLSLSPGERATLSCRASQSVSSSYLAWYQQKPGQAPRLLIYGASNRATGIPDRFSGSGSGTDFTLTISRLEPEDFAVYYCQQAHTALWTFGGGTKVEIK	7.34
ADI-34137 (antibody, V domains shown, anti-ID IgG) VH: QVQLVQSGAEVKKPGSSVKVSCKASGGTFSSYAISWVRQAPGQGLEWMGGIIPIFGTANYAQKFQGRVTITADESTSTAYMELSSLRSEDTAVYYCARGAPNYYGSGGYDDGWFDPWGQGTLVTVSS VL: EIVLTQSPGTLSLSPGERATLSCRASQSVSSSYLAWYQQKPGQAPRLLIYGASSRATGIPDRFSGSGSGTDFTLTISRLEPEDFAVYYCQQFGRFPTFGGGTKVEIK	8.74
ADI-34134 IgG (antibody, V domains shown) VH: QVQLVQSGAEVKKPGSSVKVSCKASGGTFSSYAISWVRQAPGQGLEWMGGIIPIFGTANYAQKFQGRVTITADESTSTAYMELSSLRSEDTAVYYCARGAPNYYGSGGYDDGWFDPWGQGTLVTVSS VL: EIVLTQSPGTLSLSPGERATLSCRASQSVSSDYLAWYQQKPGQAPRLLIYGASSRATGIPDRFSGSGSGTDFTLTISRLEPEDFAVYYCQQFGRVPTFGGGTKVEIK	7.74
ADI-30242 (antibody, V domains shown, anti-ID IgG) VH: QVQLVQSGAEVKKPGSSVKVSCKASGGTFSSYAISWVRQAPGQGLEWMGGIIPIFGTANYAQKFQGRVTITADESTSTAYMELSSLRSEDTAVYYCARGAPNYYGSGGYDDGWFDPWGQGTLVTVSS VL: EIVLTQSPGTLSLSPGERATLSCRASQSVSSSYLAWYQQKPGQAPRLLIYGASSRATGIPDRFSGSGSGTDFTLTISRLEPEDFAVYYCQQFGRDPTFGGGTKVEIK	7.51
ADI-34132 (antibody, V domains shown, anti-ID IgG) VH: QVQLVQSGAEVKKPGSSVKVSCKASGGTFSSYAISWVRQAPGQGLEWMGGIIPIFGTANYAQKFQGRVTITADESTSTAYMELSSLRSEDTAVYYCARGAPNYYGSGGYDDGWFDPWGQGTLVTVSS VL: DIQLTQSPSSLSASVGDRVTITCRASQSISSYLNWYQQKPGKAPKLLIYAASNLQSGVPSRFSGSGSGTDFTLTISSLQPEDFATYYCQQTLHTPITFGGGTKVEIK	9.00
